The measured values listed here are drawn from PubChem BioAssay (NCI).

Measured TGI values are reported for all entries that follow.
system: IGROV1 ovarian; test: NCI tumour cell line growth inhibition, 48 h

Completed entries (count: 5):
| MOLECULE | OBSERVED VALUE |
| --- | --- |
| CCOC(=O)CCC(C(=O)OCC)n1nnc2ccc(Nc3c(C)[n+]([O-])c4cc(F)c(OCC)cc4[n+]3[O-])cc21 (stereo not drawn) | > 100 µM |
| N#Cc1c(O)c(C=O)c(=O)n2c1[nH]c1ccccc12 | > 100 µM |
| COc1cc(/C=C/c2ccc(S(N)(=O)=O)cc2)cc(OC)c1 | 45.5 µM |
| O=Cc1cn(S(=O)(=O)c2ccccc2)c2ccccc12 | > 100 µM |
| CCc1n[nH]c(=O)n1N=C(c1ccccc1)c1ccccc1 | > 100 µM |

Ask: // lookup TGI for "Cc1cc(C)c(C2=NO[C@@H]3C(=O)N(c4ccc(Cc5ccc(N6C(=O)[C@H]7C(c8c(C)cc(C)cc8C)=NO[C@H]7C6=O)cc5)cc4)C(=O)[C@H]23)c(C)c1"
Reply: > 100 µM

Ask: Which TGI value is on record for "O=C1CCc2ccccc2O1" ?
Reply: > 100 µM

Ask: Request the reported TGI associated with "NNC(=S)NN/C=C(\C=Nc1ccccc1)[N+](=O)[O-]"
Reply: > 100 µM

Ask: Tell me the measured TGI of "C/C(CC(=O)Nc1ccc([N+](=O)[O-])cc1)=N\Nc1ccc([N+](=O)[O-])cc1[N+](=O)[O-]" , please.
Reply: > 100 µM

Ask: I have this molecule here, "COc1cc(=O)oc(/C=C/CO)c1C" , and I need its recorded TGI.
Reply: > 100 µM
